Test system: MDA-MB-231 breast
testName: NCI tumour cell line growth inhibition, 48 h
Field: log10 TGI. Provide a value for each of the compounds that follow.
Short version: log10 scale, TGI, µM.

Lab note: need log10 TGI for `CCN(CC)CCNC(=O)C(Cl)=C1C(Cl)=C(Cl)C(Cl)=C1Cl` on MDA-MB-231 breast, anyone have it?
1.50

Lab note: need log10 TGI for `NCCCCCCCCCn1c2c(c3ccccc3c1=O)C(=O)c1ccccc1-2` on MDA-MB-231 breast, anyone have it?
1.05

Lab note: need log10 TGI for COc1cc(/C=C2\CC3C4CCC5=CC(=O)CC[C@]5(C)C4CC[C@]3(C)C2=O)ccc1OCCN1CCCCC1 (stereo partly specified) on MDA-MB-231 breast, anyone have it?
0.70

Lab note: need log10 TGI for O=C1C=CC(=O)[C@H]2C3C=CC(C4C3C3(Cl)C(Cl)=C(Cl)[C@]4(Cl)C3(Cl)Cl)[C@@H]12 (stereo partly specified) on MDA-MB-231 breast, anyone have it?
1.22

Lab note: need log10 TGI for `CCOC(=O)c1cc([N+](=O)[O-])cc([N+](=O)[O-])c1Sc1ncnc2nc[nH]c12` on MDA-MB-231 breast, anyone have it?
1.40

Lab note: need log10 TGI for CCN(CC)CC(O)c1cc(-c2ccc(Cl)cc2)nc2cc(Cl)ccc12 (stereo unspecified) on MDA-MB-231 breast, anyone have it?
0.59

Lab note: need log10 TGI for COc1cc(C2c3cc4c(cc3OC(NNc3ccccc3)C2C)OCO4)cc(OC)c1O (stereo unspecified) on MDA-MB-231 breast, anyone have it?
0.93

Lab note: need log10 TGI for `O=C1c2c(F)c(F)c(F)c(F)c2SC2=Nc3cccc4cccc(c34)N12` on MDA-MB-231 breast, anyone have it?
1.07

Lab note: need log10 TGI for `COc1cc(/C=C/c2ccc(S(N)(=O)=O)cc2)cc(OC)c1` on MDA-MB-231 breast, anyone have it?
1.67

Lab note: need log10 TGI for `Cc1nc2cc(Nc3nc(Nc4ccc(F)cc4)nc(N4CCCC4)n3)ccc2n1Cc1ccccc1` on MDA-MB-231 breast, anyone have it?
0.51

---

Tested on: T-47D breast
testName: NCI tumour cell line growth inhibition, 48 h
Field: TGI. Provide a value for each of the molecules that follow.
Your answer is read as µM, so omit the unit and give the number.

Returns the measured TGI for the input molecule. Input: COC1/C=C/OC2(C)Oc3c(C)c(O)c4c(O)c(c(C=NOC(c5ccccc5)c5ccccc5)c(O)c4c3C2=O)NC(=O)/C(C)=C/C=C/C(C)C(O)C(C)C(O)C(C)C(OC(C)=O)C1C (stereo not given)
6.71

Returns the measured TGI for the input molecule. Input: CCCCC1N=CNc2c1ccc1c2[nH]c2ccccc21 (stereo not given)
3.2

Returns the measured TGI for the input molecule. Input: `CCN(CC)CCNC(=O)C(Cl)=C1C(Cl)=C(Cl)C(Cl)=C1Cl`
45.6

Returns the measured TGI for the input molecule. Input: `CC(=O)N1CCN(CCCCN2c3ccccc3Sc3cc(N=[N+]=[N-])ccc32)CC1`
15.2

---

Tested on: SR leukemia
testName: NCI tumour cell line growth inhibition, 48 h
observedProperty: TGI

Returns the measured TGI for the input compound. Input: `ClCc1ccc(-c2ccc(Cn3cnc4c(Cl)ncnc43)cc2)cc1`
> 100 µM

Returns the measured TGI for the input compound. Input: Nc1nc(Cl)nc2c1ncn2C1OC(CO)C(O)C1O (stereo not drawn)
> 100 µM

Returns the measured TGI for the input compound. Input: `Cn1c(=O)c(-c2c(Cl)cccc2Cl)cc2cnc(Nc3ccc(I)cc3)nc21`
< 0.01 µM
